Each record here notes measured DR2w2β2 binding data.
# TARGET OF ASSAY: DRB5*0101 (DR2w2β2) (Homo sapiens, UniProt P01903+Q30154)
# Construct: expressed in transfected cells; host or cells: L416.3 (fibroblasts) or GM3107
# Type: binding

ITEM SEQUENCE	TARGET OF ASSAY	DR2w2β2 binding data
LHEGCTSEL	DRB5*0101 (DR2w2β2) (Homo sapiens, UniProt P01903+Q30154)	-0.0005
IAGGLALLA	DRB5*0101 (DR2w2β2) (Homo sapiens, UniProt P01903+Q30154)	0.0013
YDNAGINLY	DRB5*0101 (DR2w2β2) (Homo sapiens, UniProt P01903+Q30154)	-0.0005
FQEYQCYGS	DRB5*0101 (DR2w2β2) (Homo sapiens, UniProt P01903+Q30154)	-0.0005
VEKTASCGV	DRB5*0101 (DR2w2β2) (Homo sapiens, UniProt P01903+Q30154)	-0.0009
VSTVLLGGV	DRB5*0101 (DR2w2β2) (Homo sapiens, UniProt P01903+Q30154)	-0.0005
VVPGAATPY	DRB5*0101 (DR2w2β2) (Homo sapiens, UniProt P01903+Q30154)	0.0053
YQNNIVDEI	DRB5*0101 (DR2w2β2) (Homo sapiens, UniProt P01903+Q30154)	-0.0006
VNDFQISKY	DRB5*0101 (DR2w2β2) (Homo sapiens, UniProt P01903+Q30154)	-0.0005

Attribution: patent US20160193316A1
